Kindly state log10 IC50 for each of the entries shown.
- target: human Kv1.3 (Homo sapiens (Human))
- Sequence (P22001 whole entry): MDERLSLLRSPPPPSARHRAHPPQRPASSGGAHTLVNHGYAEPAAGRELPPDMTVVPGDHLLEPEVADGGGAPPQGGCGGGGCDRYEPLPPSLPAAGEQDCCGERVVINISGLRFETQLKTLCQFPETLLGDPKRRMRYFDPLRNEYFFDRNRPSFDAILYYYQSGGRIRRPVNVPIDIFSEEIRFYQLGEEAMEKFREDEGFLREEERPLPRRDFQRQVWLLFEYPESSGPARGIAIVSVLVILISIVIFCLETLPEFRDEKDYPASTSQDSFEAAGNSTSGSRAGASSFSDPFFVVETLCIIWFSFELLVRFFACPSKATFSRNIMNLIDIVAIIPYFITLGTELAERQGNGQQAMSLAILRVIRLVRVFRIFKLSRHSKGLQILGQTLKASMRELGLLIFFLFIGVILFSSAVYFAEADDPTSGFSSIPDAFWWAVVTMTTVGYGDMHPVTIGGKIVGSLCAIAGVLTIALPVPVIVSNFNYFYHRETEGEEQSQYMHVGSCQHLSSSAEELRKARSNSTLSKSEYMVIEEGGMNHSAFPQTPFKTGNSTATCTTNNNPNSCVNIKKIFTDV
- measurement-notes: Kv1.3 potency evaluation, automated patch clamp electrophysiology (QPatch HT) in CHO-Kv1.3 cells
- condition-set: whole-cell QPatch HT, % inhibition of charge, step to +30 mV, four concentrations, N≥3 cells, read-out: hKv1.3 IC50
Friendly reminder: values = log10 of IC50, unit nM.

{"columns": ["compound", "log10 IC50"],
 "data": [
  ["COCCS(=O)(=O)N(Cc1ccc(Cl)cc1)C12CC(C3=NC(C)(C)[C@H](C(=O)NCCC(F)(F)F)N3)(C1)C2 (mixture of isomers) [Example 261]", 2.59],
  ["CC1(C)N=C(C23CC(N(Cc4ccc(Cl)cc4)S(=O)(=O)CCC4CC4)(C2)C3)N[C@H]1C(=O)NCCC(F)(F)F (mixture of isomers) [Example 67]", 1.72],
  ["CC1(C)N=C(C23CC(N(Cc4ccc(Cl)c(F)c4)S(=O)(=O)c4ccccc4)(C2)C3)N[C@H]1C(=O)NC12CC(C(F)(F)F)(C1)C2 (mixture of isomers) [Example 242]", 2.39],
  ["CC1(C)N=C(C23CC(N(Cc4ccc(Cl)c(F)c4)S(=O)(=O)c4ccccc4)(C2)C3)N[C@H]1C(=O)NCC1(F)CC1 (mixture of isomers) [Example 6]", 1.30],
  ["CC1(C)N=C(C23CC(N(Cc4ccc(Cl)c(F)c4)S(=O)(=O)c4ccccc4)(C2)C3)N[C@H]1C(=O)NCC1(C(F)(F)F)CC1 (mixture of isomers) [Example 26]", 1.73],
  ["CC1(C)N=C(C23CC(N(Cc4ccc(Cl)c(F)c4)S(=O)(=O)c4ccccc4)(C2)C3)N[C@H]1C(=O)NC1CC(C(F)F)C1 (mixture of isomers) [Example 89]", 1.80],
  ["CN(C(=O)[C@@H]1NC(C23CC(N(Cc4ccc(Cl)c(F)c4)S(=O)(=O)c4ccccc4)(C2)C3)=NC1(C)C)C1CC(F)(F)C1 (mixture of isomers) [Example 151]", 1.95],
  ["CC1N=C(C23CC(N(Cc4ccc(C(F)(F)F)cc4)S(=O)(=O)c4ccc(F)cc4)(C2)C3)N[C@@]1(C)C(=O)NCC1CCC1 (mixture of isomers) [Example 245]", 2.40],
  ["CC1(C)N=C(C23CC(N(Cc4ccc(Cl)c(C#N)c4)S(=O)(=O)c4ccccc4)(C2)C3)N[C@H]1C(=O)NCCC(F)(F)F (mixture of isomers) [Example 223]", 2.25],
  ["O=C(NCC1CCC1)C1NC(C23CC(N(Cc4ccc(C(F)(F)F)cc4)S(=O)(=O)c4ccc(F)cc4)(C2)C3)=NC12CCC2 (stereo not shown) [Example 229]", 2.30]
]}

Look at each compound and report its log10 IC50.
1. CC1(C)N=C(C23CC(N(Cc4ccc(Cl)cc4)S(=O)(=O)c4ccccc4)(C2)C3)N[C@H]1C(=O)NCC1CC(F)(F)C1 (mixture of isomers) [Example 37]
2. CC1(C)N=C(C23CC(N(Cc4ccc(Cl)c(F)c4)S(=O)(=O)c4ccccc4)(C2)C3)N[C@H]1C(=O)N1CCC12CCC2 (mixture of isomers) [Example 30]
3. CC1(C)N=C(C23CC(N(Cc4ccc(C(F)(F)F)cc4)S(=O)(=O)c4ccc(F)cc4)(C2)C3)N[C@H]1C(=O)NCC1(F)CCC1 [Example 145]
4. CC1(C)N=C(C23CC(N(Cc4ccc(Cl)cc4)S(=O)(=O)c4ccccc4)(C2)C3)N[C@H]1C(=O)NC1CC(C(F)F)C1 (mixture of isomers) [Example 45]
5. CC1(C)N=C(C23CC(N(Cc4ccc(Cl)c(F)c4)S(=O)(=O)c4ccccc4)(C2)C3)N[C@H]1C(=O)NCCCC(F)(F)F (mixture of isomers) [Example 108]
6. CC1(C)CCN(C(=O)[C@@]2(C)CN=C(C34CC(N(Cc5ccc(C(F)(F)F)cc5)S(=O)(=O)c5ccc(F)cc5)(C3)C4)N2)C1 (mixture of isomers) [Example 264]
7. O=C(NCC1CCC1)C1NC(C23CC(N(Cc4ccc(C(F)(F)F)cc4)S(=O)(=O)c4ccc(F)cc4)(C2)C3)=NC12CC2 (stereo not shown) [Example 239]
8. CC1(C)N=C(C23CC(N(Cc4ccc(Cl)c(Cl)c4)S(=O)(=O)c4ccccc4)(C2)C3)N[C@H]1C(=O)NCC(F)(F)C(F)(F)F [Example 5]

Ans:
1. 1.65
2. 1.61
3. 1.94
4. 1.66
5. 1.85
6. 2.61
7. 2.36
8. 2.14

Look at each compound and report its log10 IC50.
1. CC1(C)N=C(C23CC(N(Cc4ccc(Cl)c(F)c4)S(=O)(=O)c4ccccc4)(C2)C3)N[C@H]1C(=O)N1CCC2(CCC2)C1 (mixture of isomers) [Example 109]
2. CC1(C)N=C(C23CC(N(Cc4ccc(Cl)cc4)S(=O)(=O)c4ccccc4)(C2)C3)N[C@H]1C(=O)NCCC(F)(F)F (mixture of isomers) [Example 2]
3. CC1(C)N=C(C23CC(N(Cc4ccc(Cl)cc4F)S(=O)(=O)c4ccccc4)(C2)C3)N[C@H]1C(=O)NCCC(F)(F)F (mixture of isomers) [Example 9]
4. CC1(C)N=C(C23CC(N(Cc4ccc(Cl)c(F)c4)S(=O)(=O)c4ccccc4)(C2)C3)N[C@H]1C(=O)NC1CC(F)(F)C1 (mixture of isomers) [Example 114]

Ans:
[1.85, 1.48, 1.45, 1.86]

---

- target: UniProtKB P22001
- measurement-notes: Kv1.3 potency evaluation, automated patch clamp electrophysiology (QPatch HT) in CHO-Kv1.3 cells
- condition-set: whole-cell QPatch HT, % inhibition of charge, step to +30 mV, four concentrations, N≥3 cells, read-out: hKv1.3 IC50
Kindly state pIC50 for each of the entries shown.
Answers are plain numbers, as −log10 of the molar value.

{"columns": ["compound", "pIC50"],
 "data": [
  ["CC(C)(F)CNC(=O)[C@@H]1NC(C23CC(N(Cc4ccc(Cl)c(Cl)c4)S(=O)(=O)CCC(C)(F)F)(C2)C3)=NC1(C)C (mixture of isomers)", 7.02],
  ["CN(C(=O)[C@@H]1NC(C23CC(N(Cc4ccc(Cl)c(F)c4)S(=O)(=O)c4ccccc4)(C2)C3)=NC1(C)C)C1CC(C(F)F)C1 (mixture of isomers) [Example 38]", 7.35],
  ["CC1(C)N=C(C23CC(N(Cc4ccc(Cl)c(F)c4)S(=O)(=O)c4ccccc4)(C2)C3)N[C@H]1C(=O)NCC1(C(F)(F)F)CCC1 (mixture of isomers)", 7.01],
  ["CC1(C)N=C(C23CC(N(Cc4ccc(Cl)c(F)c4)S(=O)(=O)c4ccccc4)(C2)C3)N[C@H]1C(=O)N1CC2CC(F)(F)CC2C1 (mixture of isomers)", 7.21],
  ["CC1(C)N=C(C23CC(N(Cc4ccc(Cl)c(Cl)c4)S(=O)(=O)CCC(F)F)(C2)C3)N[C@H]1C(=O)NCC1CC(F)(F)C1 (mixture of isomers)", 6.87]
]}

Look at each compound and report its pIC50.
1. CC1(C)N=C(C23CC(N(Cc4ccc(Cl)c(F)c4)S(=O)(=O)c4ccccc4)(C2)C3)N[C@H]1C(=O)N1CCOCC1 (mixture of isomers)
2. CC(NC(=O)[C@@]1(C)CN=C(C23CC(N(Cc4ccc(C(F)(F)F)cc4)S(=O)(=O)c4ccc(F)cc4)(C2)C3)N1)C1CCC1 (mixture of isomers) [Example 238]
3. CC1(C)N=C(C23CC(N(Cc4ccc(Cl)cc4)S(=O)(=O)c4ccccc4)(C2)C3)N[C@H]1C(=O)NC12CC(C1)C2 (mixture of isomers)
4. CC1(C)N=C(C23CC(N(Cc4ccc(Cl)c(F)c4)S(=O)(=O)c4ccccc4)(C2)C3)N[C@H]1C(=O)NCC1CC(F)(F)C1 (mixture of isomers)

Ans:
6.46
6.66
7.52
7.28

Look at each compound and report its pIC50.
1. C[C@@H](NC(=O)[C@@H]1NC(C23CC(N(Cc4ccc(Cl)c(F)c4)S(=O)(=O)c4ccccc4)(C2)C3)=NC1(C)C)C(F)(F)F (mixture of isomers)
2. CC1(NC(=O)[C@@H]2NC(C34CC(N(Cc5ccc(Cl)c(F)c5)S(=O)(=O)c5ccccc5)(C3)C4)=NC2(C)C)CCC1 (mixture of isomers)
3. CC1(C)N=C(C23CC(N(Cc4ccc(Cl)cc4)S(=O)(=O)CC(F)(F)F)(C2)C3)N[C@H]1C(=O)NCCC(F)(F)F (mixture of isomers)

Ans:
1. 7.33
2. 7.42
3. 6.24

Look at each compound and report its pIC50.
1. CC(C)CC1(C(=O)NCC2CCC2)CN=C(C23CC(N(Cc4ccc(C(F)(F)F)cc4)S(=O)(=O)c4ccc(F)cc4)(C2)C3)N1 (stereo not drawn)
2. CC1(C)N=C(C23CC(N(Cc4ccc(Cl)c(Cl)c4)S(=O)(=O)c4ccccc4)(C2)C3)N[C@H]1C(=O)N1CCC12CC(F)(F)C2 (mixture of isomers)
3. CC1N=C(C23CC(N(Cc4ccc(C(F)(F)F)cc4)S(=O)(=O)c4ccc(F)cc4)(C2)C3)N[C@@]1(C)C(=O)NCCC(F)(F)F (mixture of isomers) [Example 265]
4. CC1(C)N=C(C23CC(N(Cc4ccc(C(F)(F)F)cc4)S(=O)(=O)c4ccc(F)cc4)(C2)C3)NC1C(=O)NCCC(F)(F)F (stereo not drawn)
5. CC1(C)N=C(C23CC(N(Cc4ccc(Cl)cc4)S(=O)(=O)CC4CC4)(C2)C3)N[C@H]1C(=O)NCCC(F)(F)F (mixture of isomers)
6. C[C@@H]1CCN(C(=O)[C@@H]2NC(C34CC(N(Cc5ccc(Cl)c(F)c5)S(=O)(=O)c5ccccc5)(C3)C4)=NC2(C)C)C1 (mixture of isomers)

Ans:
6.10
7.10
6.39
6.94
7.10
7.28

Look at each compound and report its pIC50.
1. CC1(C)N=C(C23CC(N(Cc4ccc(Cl)c(Cl)c4)S(=O)(=O)c4ccccc4)(C2)C3)N[C@H]1C(=O)N1CCC(F)(F)C2(CC2)C1 (mixture of isomers)
2. CC1(C)N=C(C23CC(N(Cc4ccc(Cl)cc4)S(=O)(=O)c4ccccc4C(N)=O)(C2)C3)N[C@H]1C(=O)NCCC(F)(F)F (mixture of isomers)
3. CCCS(=O)(=O)N(Cc1ccc(Cl)c(Cl)c1)C12CC(C3=NC(C)(C)[C@H](C(=O)NC45CC(C4)C5)N3)(C1)C2 (mixture of isomers)

Ans:
[7.00, 5.53, 7.37]
